System: IGROV-1
test description: NCI tumour cell line growth inhibition, 48 h
Activity calls are given as the source filed them. Cut-off read from the data, not from the text of the source: active = GI50 up to about 1.1 µM and inactive = higher.
reported property: GI50

Would you please look over these solved cases?
If you can, please state the reported GI50 value of `CC1=NC(=Cc2ccc([N+](=O)[O-])cc2)C(=O)N1n1c(-c2ccccc2)nc2ccccc2c1=O` .
53.6 µM (inactive)

If you can, please state the reported GI50 value of `O=C1N[C@@H](COc2ccc(/C=N/c3ccc(CCc4ccc(/N=C/c5ccc(OC[C@@H]6COC(=O)N6)cc5)cc4)cc3)cc2)CO1` .
> 100 µM (inactive)

Quick batch: GI50 for everything below.
1. Cc1csc2c(=O)n(C3OC(CO)C(O)C3O)c(=O)[nH]c12 (stereo not given)
2. c1coc(C2=Nc3cccc4cccc(c34)N2)c1

1. > 100 µM (inactive)
2. > 100 µM (inactive)

Quick batch: GI50 for everything below.
1. COP(=O)(OC)C(C)(C)NC(=O)NC(F)(F)F
2. C#C[C@]1(O)[C@@H](CO)O[C@@H](n2ccc(=O)[nH]c2=O)[C@@H]1O
3. COC(=O)CC1C=CC(C)(OC)OO1 (stereo not given)
4. O=C(CN1CCCCC1)CC(O)(C(F)(F)F)C(F)(F)F
5. CN(C(=O)c1ccc([N+](=O)[O-])cc1)c1ccccc1
6. N#CCCN(c1ccc(/C=N/c2ccc(C(=O)O)cc2)cc1)S(=O)(=O)c1ccccc1

> 100 µM (inactive)
0.0745 µM (active)
> 100 µM (inactive)
> 100 µM (inactive)
> 100 µM (inactive)
> 100 µM (inactive)

* * *

Tested on: HT-29
test description: NCI tumour cell line growth inhibition, 48 h
Active and inactive are the calls of the source. No stated cut-off is given here; in the data, active = GI50 up to about 1.1 µM and inactive = higher.
Form entry, call: pick from active, inactive

Some entries whose results are on file:
Recorded test outcome, item `C#CCOC(=O)C=[N+]=[N-]`
inactive

Recorded test outcome, item `Cc1cccc(Br)[n+]1[O-]`
inactive

Recorded test outcome, item `O=C1C=C(Nc2ccc(Cl)cc2Cl)c2ccccc2C1=O`
inactive

Recorded test outcome, item `CC(C)(C)c1cc([Si](C)(C)C)c(C#N)c([Si](C)(C)C)c1`
inactive

Recorded test outcome, item `O=c1[nH]c2ccccc2c2oc(-c3ccccc3)nc12`
inactive

Recorded test outcome, item `C#C[C@@H](CCCC)OC(=O)N[C@H](C)c1ccccc1`
inactive

Recorded test outcome, item O=C1/C(=C/c2ccccc2)N=C(c2ccccc2)N1C1Nc2cc3c(cc2S1)NC(N1C(=O)/C(=C/c2ccccc2)N=C1c1ccccc1)S3 (configuration not stated)
inactive

Recorded test outcome, item `CCOc1cc2c(OCc3ccccc3)cc3c4cc(OC)c(OC)cc4c[n+](C)c3c2cc1OC`
inactive

Recorded test outcome, item Nc1nc(Cl)cc(NCC2(CO)CC(Cc3ccccc3)C2)n1 (configuration not stated)
inactive

Recorded test outcome, item CC(C)C1CNC2N1C(=O)C2(C)OCc1ccccc1 (configuration not stated)
inactive

Others:
Recorded test outcome, item `N#Cc1c(-c2ccccc2)cc(Nc2ccc(F)cc2)n2c1nc1ccccc12`
inactive

Recorded test outcome, item `Cc1ccc(Cn2c(C)nc3c2C(=O)c2ccccc2C3=O)cc1`
inactive

Recorded test outcome, item COC(=O)C1CC(C(=O)OC)c2nc3cc(C)c(C)cc3nc21 (configuration not stated)
inactive

Recorded test outcome, item `N=c1oc2c(Cl)cc(Cl)cc2cc1C(=O)Nc1ccccn1`
inactive

Recorded test outcome, item `Cc1n[nH]c(=O)n1/N=C/c1ccco1`
inactive

* * *

Please provide measured GI50 for the entries that follow.
Test system: HCC 2998
test description: NCI tumour cell line growth inhibition, 48 h
The source made the active and inactive calls. No stated cut-off is given here; in the data, active = GI50 up to about 1.1 µM and inactive = higher.

Would you please look over these solved cases?
Given the entry `O=C1/C(=N\NC(=S)NC2CCCCC2)c2cc([N+](=O)[O-])ccc2N1CN1CCOCC1` , what GI50 was observed with HCC 2998?
4.93 µM (inactive)

Given the entry O=C1OC(CS(=O)(=O)c2ccccc2)CC1O (stereo unspecified) , what GI50 was observed with HCC 2998?
> 100 µM (inactive)

Given the entry `C/C(=N\NC(N)=S)c1ccc(C)c(C)c1` , what GI50 was observed with HCC 2998?
51.6 µM (inactive)

Quick batch: GI50 for everything below.
1. Cc1ccc(NNc2cc(=O)[nH]c(=O)[nH]2)cc1Cl
2. Cc1cc(-c2ccc(C(=O)C(c3ccccc3)(c3ccccc3)c3ccccc3)[nH]2)on1
3. COc1cc2c(c(O)c1C)C(=O)CC(c1ccccc1)O2 (stereo unspecified)
4. CCOC(=O)c1ccc(Nc2nc3ccccc3nc2-c2cccs2)cc1
5. O=c1ccc2ccc(S)cc2o1
6. CC(=O)NNc1nc(C)c(C(=O)/C=C/c2ccc(/C=C/C(=O)c3sc(NNC(C)=O)nc3C)cc2)s1

1: 15.7 µM (inactive); 2: 11.2 µM (inactive); 3: 79.8 µM (inactive); 4: 23.1 µM (inactive); 5: > 100 µM (inactive); 6: > 100 µM (inactive)

Quick batch: GI50 for everything below.
1. CN(C)CC(/C(Cc1ccccc1)=N\NC(=S)NN)c1ccccc1 (stereo unspecified)
2. COc1ccc2nc(-c3cccs3)cc(C(O)CN3CCSCC3)c2c1 (stereo unspecified)

> 100 µM (inactive)
19.7 µM (inactive)

* * *

Test system: SK-MEL-28
test description: NCI tumour cell line growth inhibition, 48 h
Activity calls are given as the source filed them. Cut-off read from the data, not from the text of the source: active = GI50 up to about 1.1 µM and inactive = higher.
reported property: GI50

Would you please look over these solved cases?
If you can, please state the reported GI50 value of `Nc1ccc2c(c1)C(=O)N(OS(=O)(=O)c1ccccc1)C2=O` .
> 100 µM (inactive)

If you can, please state the reported GI50 value of `CN1CCCN2CCN(C)CCCN(CC1)CC2` .
> 100 µM (inactive)

If you can, please state the reported GI50 value of `COc1cc2c3c(n(C)c(=O)c2cc1OC)-c1cc2c(cc1/C3=C/CCCCBr)OCO2` .
> 100 µM (inactive)

Quick batch: GI50 for everything below.
1. CN(Cc1ccccc1)C1(N(C)Cc2ccccc2)CC1
2. COc1cc(/C=C/C(=O)N[C@@H]2C(=O)N3[C@@H]2SC(C)(C)[C@@H]3C(=O)O)cc(OC)c1OC
3. CC(C)(C)c1cc([Si](C)(C)C)c(C#N)c([Si](C)(C)C)c1

1: > 100 µM (inactive); 2: > 100 µM (inactive); 3: > 100 µM (inactive)

Quick batch: GI50 for everything below.
1. CC1(C)OCC(COC(=O)C=[N+]=[N-])O1 (stereo unspecified)
2. C=C1C(=O)C=C[C@]2(C)CC[C@H]3C(=C)C(=O)O[C@@H]3[C@@H]12
3. Nc1[nH]nc2ccccc12
4. O=Cc1[nH]c(=O)[nH]c(=O)c1C(=O)O
5. N#CCCN(CCC#N)c1ccc(/C=C2\N=C(c3cc([N+](=O)[O-])ccc3Cl)OC2=O)cc1
6. Cc1cc(NCCCCCCCNc2cc(C)nc3cc([N+](=O)[O-])ccc23)c2ccc([N+](=O)[O-])cc2n1
7. CC[C@@H]1CC[C@@H]2[C@H](CC[C@]3(C)[C@@H](O[N+](=O)[O-])CC[C@@H]23)[C@H]1C(C)=O

["> 100 µM (inactive)", "1.91 µM (inactive)", "> 100 µM (inactive)", "> 100 µM (inactive)", "52.6 µM (inactive)", "4.34 µM (inactive)", "30.3 µM (inactive)"]

* * *

Hi! I'm sharing some GI50 results obtained with HCT-15.
One number for each entry, in µM.

Would you please look over these solved cases?
If you can, please state the reported GI50 value of `Nc1[nH]nc2ccccc12` .
54.7

If you can, please state the reported GI50 value of `O=C1c2cc([N+](=O)[O-])ccc2-c2cccc(F)c21` .
37.1

Please examine the following record next.
If you can, please state the reported GI50 value of CC(=O)c1ccccc1NC(=O)C(=O)C(C(=O)c1ccccc1-c1ccccc1)C1OC(=O)c2ccccc21 (stereo unspecified) .
19.7

* * *

System: 786-0
test description: NCI tumour cell line growth inhibition, 48 h
Active and inactive are the calls of the source. No stated cut-off is given here; in the data, active = GI50 up to about 1.1 µM and inactive = higher.
Form entry, call: pick from true (1) (active), false (0) (inactive)

Recorded test outcome, item `COc1cc(O)c2c(c1O)C(=O)c1cc(C)ncc1C2=O`
false (0)

Recorded test outcome, item `C#C[C@]1(O)[C@@H](CO)O[C@@H](n2ccc(=O)[nH]c2=O)[C@@H]1O`
true (1)

Recorded test outcome, item CCCP1(=O)C=C(C)C(=C(Cl)Cl)C(C)=C1 (stereo not given)
false (0)

Recorded test outcome, item FC1(F)ON2CCc3ccccc3C2[C@H]1c1ccccc1 (stereo not given in full)
false (0)

Others:
Recorded test outcome, item `CCCCCCCCCCCCCC(=O)NCO`
false (0)

Recorded test outcome, item `CN(C)CCCNc1ccnc2cccc([N+](=O)[O-])c12`
false (0)

Recorded test outcome, item `CC(=O)Nc1cc2c(cc1O)CC[C@@H]1[C@@H]2CC[C@]2(C)[C@@H](O)CC[C@@H]12`
false (0)

Recorded test outcome, item Cc1ccc(S(=O)(=O)N/N=C2\CC(C)OC3=C2CCCCCC3)cc1 (stereo not given)
false (0)

Recorded test outcome, item CN(C)CC(/C(Cc1ccccc1)=N\NC(=S)NN)c1ccccc1 (stereo not given)
false (0)

Recorded test outcome, item `CN1CC[C@@H](c2c(O)cc(O)c3c(=O)cc(-c4ccccc4Cl)oc23)[C@@H](O)C1`
true (1)

Recorded test outcome, item `COc1cc(/C=C/C(=O)N[C@@H]2C(=O)N3[C@@H]2SC(C)(C)[C@@H]3C(=O)O)cc(OC)c1OC`
false (0)

Recorded test outcome, item `O=C(NCCCCNCCCNC(=O)c1cc(-c2ccccc2)nc2ccccc12)c1cc(-c2ccccc2)nc2ccccc12`
false (0)

Recorded test outcome, item `c1ccc([P+](CCCCCC[P+](c2ccccc2)(c2ccccc2)c2ccccc2)(c2ccccc2)c2ccccc2)cc1`
false (0)

Recorded test outcome, item `N=C(N)N/N=C/c1c(-c2ccccc2)nc2ccn3c(/C=N/N=C(N)N)c(-c4ccccc4)nc3n12`
false (0)

Recorded test outcome, item `CCOC(=O)/N=c1/nc(N(C)C)ss1`
false (0)

Recorded test outcome, item CC(=O)c1ccccc1NC(=O)C(=O)C(C(=O)c1ccccc1-c1ccccc1)C1OC(=O)c2ccccc21 (stereo not given)
false (0)

Recorded test outcome, item CC1CC(=O)C(CC(=O)O)[C@H]1C(C(=O)C(=O)Nc1cc(Cl)ccc1Cl)[N+](=O)[O-] (stereo not given in full)
false (0)

Recorded test outcome, item `Cc1ccc(NC(=O)CCCC(=O)CC(=O)c2ccc(Br)cc2)cc1`
false (0)

Recorded test outcome, item `[O-][Cl+3]([O-])([O-])[O-].c1ccc(-c2[o+]c(-c3ccccc3)c(-c3ccccc3)c(-c3ccccc3)c2-c2ccccc2)cc1`
false (0)

Recorded test outcome, item `CN(C)c1cccc(-c2cc(O)c3ccccc3n2)c1`
false (0)

Origin of the recorded values: ChEMBL document CHEMBL1201862
